Each entry below carries its reported activity change, negative = inhibition.
- method.notes: AP1 Signaling Pathway (AID 357);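 note: ME-180 reporter cells stimulated with EGF at its EC50 level; % is set by controls: 0 for no effect and ±100 for the full control effect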
- experimental.context: ME-180 (cervical carcinoma) AP-1-bla reporter, EGF-induced, beta-lactamase ratio, 5 h; at 7.69 µM (top of the series) unless noted
Records with an inconclusive call do not appear. Activity calls are given as the source filed them. Calls come from the whole dose curve; as a rule, active = well fitted curve in either direction with a large enough effect (not every such curve was filed as active); inconclusive = small, poorly fitted or top-dose-only effect, or another doubt; inactive = flat fitted curve, though single readings scatter.

Could you share which activity change, negative = inhibition value was measured for c1ccc2c(c1)nnn2CN1CCOCC1 ?
1.95% (inactive)

New cases:
Could you share which activity change, negative = inhibition value was measured for CC1CCC(C(=O)O)([C@H](Br)C(=O)O)CC1 (stereo partly specified) ?
-2.54% (inactive)

What do you have for Cc1nc(CN2CCCCC2)c(O)c(=O)[nH]1 ?
-7.91% (inactive)

What do you have for N[C@@H](CSC1(c2ccc(Cl)cc2)c2ccccc2-c2ccccc21)C(=O)O ?
-8.46% (inactive)

What do you have for CCCCCCCCCCCCCCCC(=O)NC[C@@H](COP(=O)([O-])OCC[N+](C)(C)C)OCC ?
-23.3% [at 38 µM] (inactive)

What do you have for Cn1ncc2c(Cl)ncnc21 ?
2.44% (inactive)

Cited source for all entries: PubChem BioAssay (NCATS)
